Tested on: HPPD polypeptides
Measurement protocol: coupled HPPD activity assay: turnover and residual turnover in crude extracts
Format: biochemical, Pseudomonas fluorescens
Stated conditions: absence of Cmpd. 1; high substrate concentration; kinetic changes in absorbance (OD) at 320 nm, 30 min
Measure name: Turnover
Keep it simple and answer with nothing but the number.

45 (protein, mutant HPPD polypeptide) MADLYENPMGLMGFEFIEFASPTPGTLEPIFEIMGFTKVATHRSKNVHLYRQGEINLILNNEPNSIASYFAAEHGPSVCGMAFRVKDSQKAYNRALELGAQPIHIDTGPMELNLPAIKGIGGAPLYLIDRFGEGSSIYDIDFVYLEGVERNPVGAGLKVIDHLTHNVYRGRMVYWANFYEKLFNFREARYFDIKGEYTGLTSKAMSAPDGMIRIPLNEESSKGAGQIEEFLMQFNGEGIQHVAFLTDDLVKTWDALKKIGMRFMTAPADNYYEMLEGRLPDHGEPVDQLQARGILLDGSSVEGDKRLLLQIFSETLMGPVFFEFIQRKGDDGFGPHSFKVLFEQVERDQVRRGVLTAD: 0.214

# next molecule below
Please give the documented Turnover of 71 (protein, mutant HPPD polypeptide) MADLYENPMGLMGFEFIEFASPTPGTLEPIFEIMGFTKVATHRSKNVHLYRQGEINLILNNEPNSIASYFAAEHGPSVCGMAFRVKDSQKAYNRALELGAQPIHIDTGPMELNLPAIKGIGGAPLYLIDRFGEGSSIYDIDFVYLEGVERNPVGAGLKVIDHLTHNVYRGRMVYWANFYEKLFNFREARYFDIKGEYTGLTSKAMSAPDGMIRILLNEESSKGAGQIEEFLMQFNGEGIQHVAFLTDDLVKTWDALKKIGMRFMTAPPDTYYEMLEGRLPDHGEPVDQLQARGILLDGSSVEGDKRLLLQIFSETLMGPVFFEFIQRKGDDGFGPFNFKELFESIERDQVRRGVLTAD
0.044

The measurements presented in this section are drawn from patent US11180770B2.
